meta.source: patent US20230348424A1

Molecular target: SOS1:KRAS (G12C) interaction (Homo sapiens (Human), UniProt Q07889)
Sequence (Q07889 564-1049, stated change not applied): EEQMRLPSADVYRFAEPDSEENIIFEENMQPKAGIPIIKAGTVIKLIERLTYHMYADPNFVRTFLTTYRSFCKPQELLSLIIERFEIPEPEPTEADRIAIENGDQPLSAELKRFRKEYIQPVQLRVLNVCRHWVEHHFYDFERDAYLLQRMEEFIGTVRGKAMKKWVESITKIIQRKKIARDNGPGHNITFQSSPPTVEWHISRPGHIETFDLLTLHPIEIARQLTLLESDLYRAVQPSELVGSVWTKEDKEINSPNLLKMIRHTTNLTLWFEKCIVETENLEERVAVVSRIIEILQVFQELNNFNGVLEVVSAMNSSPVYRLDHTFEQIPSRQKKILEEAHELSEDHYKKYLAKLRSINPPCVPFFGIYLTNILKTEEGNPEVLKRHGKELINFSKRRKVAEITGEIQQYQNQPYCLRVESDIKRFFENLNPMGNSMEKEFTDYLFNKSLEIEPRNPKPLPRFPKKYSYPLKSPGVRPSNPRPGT
Assay: SOS1 KRas(G12C) FRET Assay
Settings: 0.5 nM His10-SOS1 (res. 564-1049), 2.5 nM GST-KRAS G12C (res. 1-169), 2 hrs at RT
quantityName: pIC50
Recall that pIC50 is obtained by taking minus log10 of the concentration measured in molar.

# input Entry CC(NC(=O)c1cn(C2(C(F)F)CC2)c(=O)cc1NC1CCN(C)CC1)c1ccc(C2CC2)c(C(F)(F)F)c1 (centres unmarked) : reported pIC50 = ?
# output 5.23

# input // returns reported pIC50 for input C[C@@H](NC(=O)c1cn(C23CC(C2)C3)c(=O)cc1N[C@H]1[C@@H]2CN(C)C[C@@H]21)c1cccc(S(F)(F)(F)(F)F)c1
# output 7.62

# input Value lookup for pIC50; key = C[C@@H](NC(=O)c1cn([C@@H]2CCOC[C@H]2F)c(=O)cc1N[C@@H]1[C@@H]2C[C@H]1CN(C)C2)c1cccc(C(F)F)c1F
# output 7.74

# input # get_value(readout='pIC50', item= C[C@@H](NC(=O)c1cn([C@@H]2C[C@H]2C2CC2)c(=O)cc1N[C@H]1[C@@H]2CN(C)C[C@@H]21)c1cccc(C(F)F)c1F )
# output 7.66

# input Recorded pIC50 for C[C@@H](NC(=O)c1cn(C2(C(F)F)CC2)c(=O)cc1N[C@@H]1CCNC[C@@H]1F)c1cccc(C(F)F)c1F (single isomer, unassigned) , please?
# output 7.76

# input Which pIC50 is reported for this molecule? C[C@@H](NC(=O)c1cn(C2(C(F)F)CC2)c(=O)cc1NC1CCN(C)CC1)c1cccc(C(C)(F)F)c1F
# output 7.73

# input // pIC50 lookup, key: C[C@H](NC(=O)c1cn(C2(C(F)F)CC2)c(=O)cc1NC1CCN(C)CC1)c1ccc(F)c(C(F)(F)F)c1 (single isomer, unassigned)
# output 6.25

# input For the molecule shown here, C[C@@H](NC(=O)c1cn(C2(C)CCN(C(=O)C3(F)CC3)C2)c(=O)cc1NC1CCN(C)CC1)c1cccc(C(F)F)c1F (some centres unmarked) , give the reported pIC50.
# output 8.61
